- experiment.description: Cellular permeability assay utilizing Caco2 cell line
- settings: human, Caco-2, Caco‐2 permeability Papp +Elacridar, A2B in the presence of elacridar
Form field: Papp at 120 min, 10 µM (one value per entry).
Give just the numeric value; ×10⁻⁶ cm/s need not be written.

Solved entries:
compound: CC(C)=CCC12OC1C(O)c1ccccc1C2=O (stereo not shown) [compound 37]
endpoint.label: Papp at 120 min, 10 µM
data.value: 27.9
--
compound: CCC/C=C/c1cc2c(cn1)[C@H](O)[C@H]1O[C@@]1(CC=C(C)C)C2=O [compound 27]
endpoint.label: Papp at 120 min, 10 µM
data.value: 8.77
--
compound: CCC/C=C/c1cc2c(cn1)[C@@H](O)[C@H]1O[C@@]1(CC=C(C)C)C2=O [compound 4]
endpoint.label: Papp at 120 min, 10 µM
data.value: 5.62

# next compound below
Per the record, CCCC=Cc1cc2c(cn1)C(O)C1OC1(CC=C(C)C)C2=O (stereo not drawn) [ent‐4] has Papp at 120 min, 10 µM of 4.67

* * *

- Test system: Caco-2 cells
- experiment.description: Cellular permeability assay utilizing Caco2 cell line
- settings: A2B; 10 µM; 120 min
endpoint.label: Caco‐2 permeability Papp A2B

Per the record, CC(C)=CCC12OC1C(O)c1ccccc1C2=O (stereo not drawn) [ent‐37] has Caco‐2 permeability Papp A2B of 360 10^−7 cm s^−1

Consider CCCC=Cc1ccc2c(c1)C(=O)C1(CC=C(C)C)OC1C2O (stereo not drawn) [ent‐35] . Its measured Caco‐2 permeability Papp A2B is 162 10^−7 cm s^−1

Reported Caco‐2 permeability Papp A2B of CCCC=Cc1ccc2c(c1)C(=O)C1(CC=C(C)C)OC1C2O (stereo not shown) [compound 35] : 135 10^−7 cm s^−1

For this molecule ( CC(C)=CCC12OC1C(O)c1ccccc1C2=O (stereo not drawn) [compound 2, (−)‐avicennone C, reference compound] ), measured Caco‐2 permeability Papp A2B is 407 10^−7 cm s^−1

* * *

- Test system: Caco-2 cells
- experiment.description: Cellular permeability assay utilizing Caco2 cell line
- settings: A2B in the presence of elacridar; 10 µM; 120 min
Please note: condition met applies when Caco‐2 permeability recovery +Elacridar is 30% or greater, and condition not met applies otherwise.

molecule: CCCC=Cc1cc2c(cn1)C(O)C1OC1(CC=C(C)C)C2=O (stereo not drawn) [ent‐27]
qualitative.label: condition not met
//
molecule: CCCC=Cc1cc2c(cn1)C(O)C1OC1(CC=C(C)C)C2=O (stereo not drawn) [ent‐4]
qualitative.label: condition not met
//
molecule: CCC/C=C/c1cc2c(cn1)[C@H](O)[C@H]1O[C@@]1(CC=C(C)C)C2=O
qualitative.label: condition met

Tell me whether Caco‐2 permeability recovery +Elacridar is at least 30% here: CC(C)=CCC12OC1C(O)c1ccccc1C2=O (stereo not drawn) [ent‐37]
condition met

Threshold query (Caco‐2 permeability recovery +Elacridar >= 30%) on CC(C)=CCC12OC1C(O)c1ccccc1C2=O (stereo not drawn) [compound 38]
condition met

* * *

- experiment.description: Cellular permeability assay utilizing Caco2 cell line
- settings: human, Caco-2, Caco‐2 permeability Papp A2B, A2B
endpoint.label: Papp A→B at 120 min, 10 µM (×10⁻⁶ cm/s)
Answer format: numeric, ×10⁻⁶ cm/s implied, no suffix.

molecule: CCC/C=C/c1cc2c(cn1)[C@@H](O)[C@H]1O[C@@]1(CC=C(C)C)C2=O
Papp A→B at 120 min, 10 µM, ×10⁻⁶ cm/s: 4.11
--
molecule: CCCC=Cc1cc2c(cn1)C(O)C1OC1(CC=C(C)C)C2=O (stereo not shown)
Papp A→B at 120 min, 10 µM, ×10⁻⁶ cm/s: 7.35
--
molecule: CC(C)=CCC12OC1C(O)c1ccccc1C2=O (stereo not shown)
Papp A→B at 120 min, 10 µM, ×10⁻⁶ cm/s: 32.6

Data point: CCC/C=C/c1cc2c(cn1)[C@H](O)[C@H]1O[C@@]1(CC=C(C)C)C2=O ; Papp A→B at 120 min, 10 µM = 11.7
